Assayed system: 5-HT1A receptor (Rattus norvegicus, UniProt P19327)
Construct: Brains were rapidly removed and placed on ice; from tissue; host or cells: Sprague–Dawley rat hippocampus membranes
Sequence (P19327 whole entry): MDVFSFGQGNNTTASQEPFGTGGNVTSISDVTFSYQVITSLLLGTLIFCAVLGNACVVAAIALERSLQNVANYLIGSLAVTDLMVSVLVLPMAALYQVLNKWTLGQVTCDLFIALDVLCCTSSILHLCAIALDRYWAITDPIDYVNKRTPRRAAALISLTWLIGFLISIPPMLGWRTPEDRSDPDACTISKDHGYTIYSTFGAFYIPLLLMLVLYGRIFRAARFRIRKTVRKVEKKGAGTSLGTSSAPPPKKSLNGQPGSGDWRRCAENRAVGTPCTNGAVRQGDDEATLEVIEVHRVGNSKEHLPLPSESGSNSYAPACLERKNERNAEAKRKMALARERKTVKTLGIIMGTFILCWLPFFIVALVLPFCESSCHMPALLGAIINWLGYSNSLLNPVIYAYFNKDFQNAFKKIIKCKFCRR
Assay remarks: Competitive 5-HT1A binding assay with [3H]8-OH-DPAT, rat hippocampal membranes
Study conditions: 1 nM [3H]8-OH-DPAT, ± SEM, two experiments, read-out: 5-HT1A Affinity pKi (nM ± SEM) (converted)
I'd appreciate it if you could supply Ki values for the items below.

CC(=O)c1cc2c(C)cc(=O)oc2cc1OCCCCN1CCN(c2cccc(Br)c2)CC1 [Compound 4] :: 0.759 nM
CC(=O)c1cc2c(C)cc(=O)oc2cc1OCCCCN1CCN(c2ccccc2F)CC1 [Compound 6] :: 1.07 nM
CC(=O)c1cc2c(C)cc(=O)oc2cc1OCCCCN1CCN(c2ccccc2Cl)CC1 [Compound 7] :: 0.55 nM

Now let's try a different one.
Query: What value of Ki has been recorded for this entry: CC(=O)c1cc2c(C)cc(=O)oc2cc1OCCCCN1CCN(c2ccc([N+](=O)[O-])cc2)CC1 [Compound 12]
Reply: 1780 nM

Source listed as paper PMC9917830.
